Kindly state pIC50 for each of the entries shown.
- assayed-target: Acetylcholinesterase (Bos taurus, UniProt P23795)
- Sequence (P23795 whole entry): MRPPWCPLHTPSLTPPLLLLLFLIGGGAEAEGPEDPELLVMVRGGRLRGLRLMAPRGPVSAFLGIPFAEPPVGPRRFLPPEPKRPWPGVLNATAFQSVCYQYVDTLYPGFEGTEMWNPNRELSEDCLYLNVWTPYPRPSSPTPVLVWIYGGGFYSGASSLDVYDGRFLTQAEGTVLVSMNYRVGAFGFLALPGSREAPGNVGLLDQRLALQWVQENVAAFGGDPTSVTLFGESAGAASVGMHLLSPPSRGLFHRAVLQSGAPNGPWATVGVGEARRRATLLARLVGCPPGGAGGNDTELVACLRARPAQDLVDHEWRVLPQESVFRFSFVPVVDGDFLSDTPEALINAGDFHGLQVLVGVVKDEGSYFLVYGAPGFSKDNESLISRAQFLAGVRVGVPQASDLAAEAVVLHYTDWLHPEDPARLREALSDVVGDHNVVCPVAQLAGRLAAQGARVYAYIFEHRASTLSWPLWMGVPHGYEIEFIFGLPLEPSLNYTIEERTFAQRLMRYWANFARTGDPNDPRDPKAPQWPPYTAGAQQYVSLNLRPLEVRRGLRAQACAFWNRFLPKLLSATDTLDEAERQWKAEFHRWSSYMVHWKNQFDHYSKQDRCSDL
- assay-summary: Inhibition of bovine erythrocytes AChE using acetylthiocholine iodide as substrate by Ellman's methods
- assay-conditions: read-out: IC50
# log scale: pIC50 equals minus log10 of the concentration in mol/L

Quick check: pIC50 of CCOC(=O)c1c(C)nc2nc3c(c(N)c2c1-c1ccc(OC)cc1)CCC3 ?
4.85

Same question for COc1cc(C2c3ccc(O)cc3Oc3nc4c(c(N)c32)CCCC4)cc(OC)c1OC (racemic) please.
7.39

// repeat for CCOC(=O)c1c(C)nc2nc3c(c(N)c2c1-c1ccc(OC)cc1)CCCCC3 and report
5.89

How about this compound: CCOC(=O)C1=C(C)Oc2nc3c(c(N)c2C1c1ccc(OC)cc1)CCCC3 (racemic)
6.06
